B1: CSTF3 (parent)
chain: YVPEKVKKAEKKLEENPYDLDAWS

Variants of: B1
Test: protein stability index of a GFP-peptide fusion (GPS, HEK-293T) (PSI 1-6); higher = more stable;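 note: lentivirally expressed fusions sorted by FACS into six bins by GFP to DsRed ratio, PSI derived from sequencing read proportions per bin multiplied by bin number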
Details: c terminus: a fixed tail appended
For each of the variants below, state its protein stability index.
Enter a number only.

// sample K8N , its protein stability index was 2.92

// sample K11M , its protein stability index was 2.42

// sample D19K , its protein stability index was 3.97

// sample A9K , its protein stability index was 2.59

// sample Y1V , its protein stability index was 4.97

// sample V2C , its protein stability index was 2.32

// sample P17N , its protein stability index was 2.52

// sample P3G , its protein stability index was 2.28

// sample K11D , its protein stability index was 2.07

// sample K5L , its protein stability index was 2.07

// sample D21S , its protein stability index was 2.21

// sample E15L , its protein stability index was 3.23

// sample W23L , its protein stability index was 2.93

// sample P3T , its protein stability index was 2.35

// sample E10W , its protein stability index was 1.98

// sample K11R , its protein stability index was 2.94

// sample A9G , its protein stability index was 3.46

// sample A22E , its protein stability index was 2.29

// sample K12I , its protein stability index was 2.7

// sample E15V , its protein stability index was 3.54

// sample K8V , its protein stability index was 2.21

// sample L13M , its protein stability index was 3.19

// sample K11Y , its protein stability index was 2.72

// sample S24P , its protein stability index was 2.56

// sample E10N , its protein stability index was 3.24

// sample K7D , its protein stability index was 2.54

// sample D21A , its protein stability index was 2.98

// sample E4F , its protein stability index was 2.49

// sample K8F , its protein stability index was 3.78

// sample V6W , its protein stability index was 2.57

// sample A9H , its protein stability index was 2.85

// sample K11C , its protein stability index was 2.65

// sample P3R , its protein stability index was 2.44

// sample D19H , its protein stability index was 1.58

// sample A9V , its protein stability index was 2.64

// sample E15D , its protein stability index was 2.86

// sample V2M , its protein stability index was 3.92

// sample P3V , its protein stability index was 1.97

// sample S24F , its protein stability index was 2.83

// sample D19L , its protein stability index was 1.62

// sample P17K , its protein stability index was 1.32

// sample A22F , its protein stability index was 1.8

// sample S24K , its protein stability index was 2.79

// sample L13H , its protein stability index was 2.49

// sample K12F , its protein stability index was 3.31

// sample K11L , its protein stability index was 2.31

// sample D21Q , its protein stability index was 2.86

// sample A22R , its protein stability index was 2.65

// sample L20W , its protein stability index was 1.55

// sample L20I , its protein stability index was 1.97

// sample P3Y , its protein stability index was 3.21

// sample P3N , its protein stability index was 2.12

// sample K7G , its protein stability index was 1.91

// sample P17Q , its protein stability index was 1.22

// sample A9L , its protein stability index was 2.32

// sample E10Q , its protein stability index was 3.08

// sample V6G , its protein stability index was 2.04

// sample W23C , its protein stability index was 2.38

// sample K8I , its protein stability index was 3.65

// sample P17F , its protein stability index was 1.95

// sample K11W , its protein stability index was 2.4

// sample N16E , its protein stability index was 3.13

// sample A22H , its protein stability index was 3.16

// sample K8D , its protein stability index was 2.48

// sample N16G , its protein stability index was 2.54

// sample K8C , its protein stability index was 2.34

// sample W23M , its protein stability index was 3.05

// sample L20P , its protein stability index was 2.23

// sample A22P , its protein stability index was 2.47

// sample Y18K , its protein stability index was 3.33

// sample Y18P , its protein stability index was 2.71

// sample W23Y , its protein stability index was 1.77

// sample A9W , its protein stability index was 3.31

// sample K5I , its protein stability index was 2.95

// sample L20S , its protein stability index was 2.24

// sample V2D , its protein stability index was 4.2

// sample P17H , its protein stability index was 2.04

// sample K7R , its protein stability index was 2.73

// sample L13S , its protein stability index was 3.52

// sample L20Q , its protein stability index was 2.79

// sample L20H , its protein stability index was 2.84

// sample Y1G , its protein stability index was 5.31

// sample E15G , its protein stability index was 2.88

// sample E14N , its protein stability index was 2.18

// sample V6N , its protein stability index was 2.72

// sample E15R , its protein stability index was 3.05

// sample L13Y , its protein stability index was 1.87

// sample K7P , its protein stability index was 3.13

// sample P17L , its protein stability index was 3.01

// sample A9M , its protein stability index was 2.16

// sample K11S , its protein stability index was 2.66
